% Aggregation (Turbidity method) values by entry
- SUBJECT OF TEST: recombinant Val122Ile TTR (Homo sapiens, UniProt P02766, V142I)
- Construct: the non-covalently associated protomers, of mass 13,761, each contain 127 residues; His6 (N); TEV cleavage site (N); made in house; host or cells: E. coli BL21 (DE3)
- TEST DESCRIPTION: Mechano-enzymatic fibrillogenesis, TTR aggregation by turbidity at 400 nm
- Type: biochemical
- PARTICULARS: equimolar ligand, Val122Ile TTR 9 μM, trypsin, 96 h; 100 % = protein without ligand; mean (SD)

These solved cases illustrate the format of a correct answer.
• O=C(O)CCc1cc(Cl)c(OCCCOCCOc2c(Cl)cc(Nc3ccncc3C(=O)O)cc2Cl)c(Cl)c1 [Compound B27] = 4.24 (1.96) %
• O=C(O)CCc1cc(Cl)c(OCC[C@@H](O)[C@H](O)CCOc2ccc(-c3nc4ccc(C(=O)O)cc4o3)cc2Cl)c(Cl)c1 [Compound B17] = 4.52 (1.08) %
• O=C(O)CCc1cc(Cl)c(OCC/C=C/CCOc2c(Cl)cc(Nc3ncccc3C(=O)O)cc2Cl)c(Cl)c1 [Compound B13] = 5.31 (0.62) %

# lookup: % Aggregation (Turbidity method) of O=C(O)CCc1cc(Cl)c(OCC/C=C/CCOc2c(Cl)cc(Nc3ccccc3C(=O)O)cc2Cl)c(Cl)c1 [Compound B14] 5.73 (0.50) %

Quick one: O=C(O)CCc1cc(Cl)c(OCCCOCCCOc2ccc(-c3nc4ccc(C(=O)O)cc4o3)cc2Cl)c(Cl)c1 [Compound B15] 5.56 (0.75) %

And for O=C(O)CCc1cc(Cl)c(OCOCCCOc2c(Cl)cc(Nc3ccccc3C(=O)O)cc2Cl)c(Cl)c1 [Compound B8] ? 6.35 (2.73) %

Again, but for O=C(O)CCc1cc(Cl)c(OCCCOCCCOc2c(Cl)cc(-c3nc4ccc(C(=O)O)cc4o3)cc2Cl)c(Cl)c1 [Compound B7] 4.99 (1.88) %

====

- SUBJECT OF TEST: recombinant Val122Ile TTR (Homo sapiens, UniProt P02766, V142I)
- Construct: the non-covalently associated protomers, of mass 13,761, each contain 127 residues; His6 (N); TEV cleavage site (N); made in house; host or cells: E. coli BL21 (DE3)
- TEST DESCRIPTION: Mechano-enzymatic fibrillogenesis, TTR amyloid by ThT emission fluorescence
- Assay type: biochemical
- PARTICULARS: equimolar ligand, 96 h pellets, normalized to 100 % without ligand, mean (SD)
ATTRIBUTE MEASURED: % Aggregation (Fluorescence method)

Previously resolved entries follow.
* O=C(O)CCc1cc(Cl)c(OCC[C@@H](O)[C@H](O)CCOc2ccc(-c3nc4ccc(C(=O)O)cc4o3)cc2Cl)c(Cl)c1 [Compound B17] | 3.86 (2.29) %
* O=C(O)CCc1cc(Cl)c(OCCOCCCCOc2c(Cl)cc(Nc3ccccc3C(=O)O)cc2Cl)c(Cl)c1 [Compound B2] | 4.36 (1.51) %
* O=C(O)CCc1cc(Cl)c(OCC[C@@H](O)[C@H](O)CCOc2c(Cl)cc(Nc3ccccc3C(=O)O)cc2Cl)c(Cl)c1 [Compound B4A] | 3.30 (1.19) %
* Cc1n[nH]c(COCCCOCCCOc2c(Cl)cc(CCC(=O)O)cc2Cl)c1CCCOc1cc(C(=O)O)ccc1F [Compound B9] | 9.34 (4.36) %
* O=C(O)CCc1ccc(OCCCOCCCOc2c(Cl)cc(-c3nc4ccc(C(=O)O)cc4o3)cc2Cl)c(Cl)c1 [Compound B19] | 7.27 (1.17) %
* O=C(O)CCOCCCOCCCOCCCOc1c(Cl)cc(Nc2ccccc2C(=O)O)cc1Cl [Compound B6] | 12.0 (4.44) %
* O=C(O)CCc1cc(Cl)c(OCCCOCCOc2c(Cl)cc(Nc3cnccc3C(=O)O)cc2Cl)c(Cl)c1 [Compound B26] | 4.62 (2.37) %
* O=C(O)CCc1cc(Cl)c(OCCOCCCOc2c(Cl)cc(-c3nc4ccc(C(=O)O)cc4o3)cc2Cl)c(Cl)c1 [Compound B29] | 19.2 (13.0) %
* Cc1n[nH]c(COCCCCOCCOc2c(Cl)cc(CCC(=O)O)cc2Cl)c1CCCOc1cc(C(=O)O)ccc1F [Compound B10] | 16.6 (nd) %
* O=C(O)CCc1cc(Cl)c(OCC/C=C/CCOc2c(Cl)cc(Nc3ccccc3C(=O)O)cc2Cl)c(Cl)c1 [Compound B14] | 12.6 (3.17) %

# % Aggregation (Fluorescence method) lookup, item O=C(O)CCc1cc(Cl)c(OCCCOCCOc2c(Cl)cc(-c3nc4ccc(C(=O)O)cc4o3)cc2Cl)c(Cl)c1 [Compound B28] 24.5 (8.90) %

Same thing, different molecule: O=C(O)CCc1cc(Cl)c(OCOCCCOc2c(Cl)cc(Nc3ccccc3C(=O)O)cc2Cl)c(Cl)c1 [Compound B8] 11.7 (3.67) %
